tested target: Sodium- and chloride-dependent glycine transporter 1 (Homo sapiens)
Sequence (P48067 whole entry): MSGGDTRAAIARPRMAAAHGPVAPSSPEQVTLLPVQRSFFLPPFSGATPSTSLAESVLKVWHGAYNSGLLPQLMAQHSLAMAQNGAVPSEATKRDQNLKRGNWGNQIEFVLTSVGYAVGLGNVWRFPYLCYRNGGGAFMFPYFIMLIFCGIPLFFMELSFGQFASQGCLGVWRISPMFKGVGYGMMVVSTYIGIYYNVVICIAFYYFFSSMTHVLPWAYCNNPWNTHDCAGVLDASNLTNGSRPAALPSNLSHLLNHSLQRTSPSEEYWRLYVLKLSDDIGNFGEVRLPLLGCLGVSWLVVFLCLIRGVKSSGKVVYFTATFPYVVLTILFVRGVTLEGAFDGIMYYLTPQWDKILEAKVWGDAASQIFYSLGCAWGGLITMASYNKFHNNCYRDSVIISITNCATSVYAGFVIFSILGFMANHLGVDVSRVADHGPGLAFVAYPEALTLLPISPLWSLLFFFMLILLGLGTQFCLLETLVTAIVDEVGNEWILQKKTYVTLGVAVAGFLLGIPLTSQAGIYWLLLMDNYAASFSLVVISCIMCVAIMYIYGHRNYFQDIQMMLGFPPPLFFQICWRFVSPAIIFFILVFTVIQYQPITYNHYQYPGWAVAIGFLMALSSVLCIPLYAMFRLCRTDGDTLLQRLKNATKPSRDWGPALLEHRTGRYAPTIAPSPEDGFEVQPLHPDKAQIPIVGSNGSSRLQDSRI
pKi: −log10 of the molar value.
property measured: pKi

- molecule: "OCC1(NCCCC2CCc3ccc(OCc4noc(-c5ccc(Cl)cc5)n4)cc32)CCCC1 (stereo not given)"
  pKi: 6.97
- molecule: "OCC1CCCN(CCCC2CCCc3ccc(OCc4noc(-c5ccccc5F)n4)cc32)C1 (stereo not given)"
  pKi: 7.99
- molecule: "CCN(Cc1cccc(OCc2noc(-c3ccccc3F)n2)c1)C1CCN(C2CC(C)C(C)C2)C1 (stereo not given)"
  pKi: 7.07

(1) Fc1ccccc1-c1nc(COc2ccc3c(c2)C(N2CCN(C4CCCC4)CC2)CC3)no1 (stereo not given)
(2) OCC1CCCN(CCCC2CCCc3ccc(OCc4noc(-c5ccc(Cl)cc5)n4)cc32)C1 (stereo in doubt; 8)
# input Between the two listed entries 1 and 2 , which has its pKi at the higher number? Please respond with the label that marks your chosen entry.
# output 2
(2: 7.80, 1: 7.18)

----------
tested target: Sodium- and chloride-dependent glycine transporter 2 (Homo sapiens)
Sequence (Q9Y345 whole entry): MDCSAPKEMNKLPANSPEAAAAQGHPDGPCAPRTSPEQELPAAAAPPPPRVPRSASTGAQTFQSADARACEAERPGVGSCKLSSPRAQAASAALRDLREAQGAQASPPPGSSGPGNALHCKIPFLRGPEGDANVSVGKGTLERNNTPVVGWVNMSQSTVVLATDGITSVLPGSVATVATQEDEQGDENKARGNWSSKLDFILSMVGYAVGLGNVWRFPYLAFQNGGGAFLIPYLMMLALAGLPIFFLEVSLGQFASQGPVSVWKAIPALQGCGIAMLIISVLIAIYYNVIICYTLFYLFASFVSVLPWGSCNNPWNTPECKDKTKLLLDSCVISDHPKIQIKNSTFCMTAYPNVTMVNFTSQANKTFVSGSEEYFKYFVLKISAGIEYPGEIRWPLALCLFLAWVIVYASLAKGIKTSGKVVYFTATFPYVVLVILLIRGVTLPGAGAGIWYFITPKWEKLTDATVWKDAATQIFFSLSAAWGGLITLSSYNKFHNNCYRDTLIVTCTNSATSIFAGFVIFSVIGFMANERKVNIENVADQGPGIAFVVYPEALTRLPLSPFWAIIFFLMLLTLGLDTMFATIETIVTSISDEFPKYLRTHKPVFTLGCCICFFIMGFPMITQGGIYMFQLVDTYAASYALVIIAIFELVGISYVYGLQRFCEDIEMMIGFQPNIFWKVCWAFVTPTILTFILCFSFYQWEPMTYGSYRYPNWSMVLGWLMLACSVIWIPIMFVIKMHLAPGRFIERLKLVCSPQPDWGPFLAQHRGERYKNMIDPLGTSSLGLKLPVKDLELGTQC
experiment description: Inhibition of [3H]glycine uptake at human GlyT2 expressed in HEK293 cells
pIC50: −log10 of the molar value.
property measured: pIC50

Solved entries:
- compound: "OCC1CCCN(CCCC2CCCc3ccc(OCc4noc(-c5ccc(Cl)cc5)n4)cc32)C1 (stereo in doubt; 8)"
  tested target: "Sodium- and chloride-dependent glycine transporter 2 (Homo sapiens)"
  pIC50: 6.50
- compound: "Fc1ccccc1-c1nc(COc2ccc3c(c2)C(N2CCN(C4CCCC4)CC2)CC3)no1 (stereo unspecified)"
  tested target: "Sodium- and chloride-dependent glycine transporter 2 (Homo sapiens)"
  pIC50: 6.27
- compound: "OCC1CCCN(CCCC2CCCc3ccc(OCc4noc(-c5ccccc5F)n4)cc32)C1 (stereo unspecified)"
  tested target: "Sodium- and chloride-dependent glycine transporter 2 (Homo sapiens)"
  pIC50: 6.41
- compound: "OCC1(N2CCN(C3CCc4ccc(OCc5noc(-c6ccccc6F)n5)cc43)CC2)CCCC1 (stereo unspecified)"
  tested target: "Sodium- and chloride-dependent glycine transporter 2 (Homo sapiens)"
  pIC50: 7.50

(P) OCC1CCCN(CCCC2CCCc3ccc(OCc4ccc(-c5ccccc5F)cn4)cc32)C1 (stereo unspecified)
(Q) CCN(Cc1cccc(OCc2noc(-c3ccccc3F)n2)c1)C1CCN(C2CC(C)C(C)C2)C1 (stereo unspecified)
# input Choose between P and Q : whose measured pIC50 value is numerically larger? Selection: enter the item's label.
# output P
(P: 6.40, Q: 6.07)

----------
tested target: UniProt P48067
Sequence (P48067 whole entry): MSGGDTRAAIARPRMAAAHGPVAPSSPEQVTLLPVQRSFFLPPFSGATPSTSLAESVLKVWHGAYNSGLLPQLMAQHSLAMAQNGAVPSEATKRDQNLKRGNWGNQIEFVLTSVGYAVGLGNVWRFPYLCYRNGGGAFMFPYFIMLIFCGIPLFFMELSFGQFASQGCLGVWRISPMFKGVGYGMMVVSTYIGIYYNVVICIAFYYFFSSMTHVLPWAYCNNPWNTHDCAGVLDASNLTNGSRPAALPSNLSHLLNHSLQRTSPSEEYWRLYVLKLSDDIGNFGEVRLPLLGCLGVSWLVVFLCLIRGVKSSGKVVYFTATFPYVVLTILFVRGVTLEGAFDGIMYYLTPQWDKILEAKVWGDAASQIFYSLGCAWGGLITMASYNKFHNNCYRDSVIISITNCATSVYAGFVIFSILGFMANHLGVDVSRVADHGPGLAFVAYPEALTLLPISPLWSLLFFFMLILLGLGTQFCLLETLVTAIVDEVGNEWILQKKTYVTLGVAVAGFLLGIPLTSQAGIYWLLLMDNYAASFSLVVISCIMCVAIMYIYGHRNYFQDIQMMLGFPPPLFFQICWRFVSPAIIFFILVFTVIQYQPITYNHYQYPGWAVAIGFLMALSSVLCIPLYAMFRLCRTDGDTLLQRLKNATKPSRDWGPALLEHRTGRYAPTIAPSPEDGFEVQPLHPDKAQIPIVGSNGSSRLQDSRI
experiment description: Displacement of [3H]NPTS from human GlyT1C expressed in HEK293 cells
pIC50: −log10 of the molar value.
property measured: pIC50

- molecule: "OCC1CCCN(CCCC2CCCc3ccc(OCc4noc(-c5ccc(Cl)cc5)n4)cc32)C1 (stereo in doubt; 8C)"
  tested target: "UniProt P48067"
  measured: 7.51
- molecule: "OCC1CCCN(CCCC2CCCc3ccc(OCc4noc(-c5ccc(Cl)cc5)n4)cc32)C1 (stereo in doubt; 8D)"
  tested target: "UniProt P48067"
  measured: 7.59

(1) OCC1CCCN(CCCC2CCCc3ccc(OCc4noc(-c5ccc(Cl)cc5)n4)cc32)C1 (stereo in doubt; 8B)
(2) OCC1CCCN(CCCC2CCCc3ccc(OCc4noc(-c5ccc(Cl)cc5)n4)cc32)C1 (stereo in doubt; 8A)
# input // compare: 1 vs 2 , metric pIC50, want the smaller Kindly give the label for the entry you pick.
# output 2

----------
tested target: UniProtKB P10635
experiment description: Inhibition of human recombinant CYP2D6 at 1.5 uM
Format: ADME
property measured: inhibition at 1.5 µM (%)

- compound: "OCC1CCCN(CCCC2CCCc3ccc(OCc4ccc(-c5ccccc5F)cn4)cc32)C1 (stereo unspecified)"
  inhibition at 1.5 µM (%): 30
- compound: "Fc1ccccc1-c1nc(COc2ccc3c(c2)C(N2CCN(C4CCCC4)CC2)CC3)no1 (stereo unspecified)"
  inhibition at 1.5 µM (%): 94
- compound: "CC1CC(N2CCN(C3CCc4ccc(OCc5noc(-c6ccc(Cl)cc6)n5)cc43)CC2)CC1C (stereo unspecified)"
  inhibition at 1.5 µM (%): 29

(I) OCC1(NCCCC2CCc3ccc(OCc4noc(-c5ccc(Cl)cc5)n4)cc32)CCCC1 (stereo unspecified)
(II) OCC1CCCN(CCCC2CCCc3ccc(OCc4noc(-c5ccccc5F)n4)cc32)C1 (stereo unspecified)
# input Recorded inhibition at 1.5 µM values differ for I and II ; which one is higher? Answer format: the label of the selected item.
# output I
(I: 70%, II: 43%)

----------
tested target: UniProt:P10635
experiment description: Inhibition of human recombinant CYP2D6 at 1.5 uM
Format: ADME
property measured: inhibition at 1.5 µM (%)

- compound: "OCC1(N2CCN(C3CCc4ccc(OCc5noc(-c6ccc(Cl)cc6)n5)cc43)CC2)CCCC1 (stereo unspecified)"
  inhibition at 1.5 µM [%]: 47

(1) CCN(Cc1cccc(OCc2noc(-c3ccccc3F)n2)c1)C1CCN(C2CC(C)C(C)C2)C1 (stereo unspecified)
(2) CC(C)N1CCN(C2CCc3ccc(OCc4noc(-c5ccc(Cl)cc5)n4)cc32)CC1 (stereo unspecified)
# input Hi! Which is lower in terms of inhibition at 1.5 µM, the first one 1 or the second one 2 ? Kindly state the label of the option you pick.
# output 2

----------
tested target: CYP2D6 (Homo sapiens, UniProt P10635)
Sequence (P10635 whole entry): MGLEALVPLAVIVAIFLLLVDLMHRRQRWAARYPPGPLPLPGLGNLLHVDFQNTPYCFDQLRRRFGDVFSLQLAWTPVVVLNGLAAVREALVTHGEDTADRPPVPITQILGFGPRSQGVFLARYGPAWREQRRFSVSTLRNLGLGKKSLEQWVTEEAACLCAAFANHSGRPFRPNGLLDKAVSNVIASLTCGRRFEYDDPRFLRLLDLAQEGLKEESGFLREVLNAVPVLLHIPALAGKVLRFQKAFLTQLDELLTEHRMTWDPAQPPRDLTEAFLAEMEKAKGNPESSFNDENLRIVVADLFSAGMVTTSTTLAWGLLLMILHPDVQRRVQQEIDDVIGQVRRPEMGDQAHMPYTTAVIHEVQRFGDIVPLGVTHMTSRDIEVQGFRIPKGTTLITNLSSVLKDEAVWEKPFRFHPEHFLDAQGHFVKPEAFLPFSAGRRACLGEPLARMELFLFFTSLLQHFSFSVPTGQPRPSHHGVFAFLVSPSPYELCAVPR
experiment description: Inhibition of human recombinant CYP2D6 at 1.5 uM
Type: ADME
property measured: inhibition at 1.5 µM (%)

- compound: "OCC1CCCN(CCCC2CCCc3ccc(OCc4noc(-c5ccc(Cl)cc5)n4)cc32)C1 (stereo in doubt; 8)"
  property measured: "inhibition at 1.5 µM"
  measure unit: "%"
  measured: 96
- compound: "CN1CCN(c2cccc3ccc(OCc4noc(-c5ccc(Cl)cc5)n4)cc23)CC1"
  property measured: "inhibition at 1.5 µM"
  measure unit: "%"
  measured: 75
- compound: "OCC1(N2CCN(C3CCc4ccc(OCc5noc(-c6ccccc6F)n5)cc43)CC2)CCCC1 (stereo not drawn)"
  property measured: "inhibition at 1.5 µM"
  measure unit: "%"
  measured: 85

From: ChEMBL document CHEMBL1139118
